test: Cytotoxicity against human WI38 cells assessed as reduction in cellular DNA level preincubated for 2 hrs before viral infection measured after 7 days by real time PCR assay; format: cell-based, WI-38; settings: WI38 cells
Under this convention, Fulfilled denotes CC50 at 168 h strictly below 20 µM and Not fulfilled denotes CC50 at 168 h at or above 20 µM.

# MOLECULE, LABEL
data = [
    ("CN(C)CCCN1c2ccccc2Sc2ccc(Cl)cc21", "Fulfilled"),
    ("COC(=O)[C@H]1O[C@@H](OC(C)=O)[C@H](OC(C)=O)[C@@H](OC(C)=O)[C@@H]1OC(C)=O", "Not fulfilled"),
    ("Cc1cc2c(s1)Nc1ccccc1N=C2N1CCN(C)CC1", "Not fulfilled"),
    ("CO[C@H]1O[C@H](CO)[C@@H](O)[C@H](O)[C@@H]1O", "Not fulfilled"),
    ("CCN(CC)CCCC(C)Nc1ccnc2cc(Cl)ccc12 (configuration not stated)", "Fulfilled"),
    ("Cc1nc2n(c(=O)c1CCN1CCC(c3noc4cc(F)ccc34)CC1)CCCC2", "Not fulfilled"),
    ("C[C@@H]1[C@H](O)[C@@H](C)/C=C/C=C/C=C/C=C/C=C/C=C/C=C/[C@H](O[C@@H]2O[C@H](C)[C@@H](O)[C@H](N)[C@@H]2O)C[C@@H]2O[C@](O)(C[C@@H](O)C[C@@H](O)[C@H](O)CC[C@@H](O)C[C@@H](O)CC(=O)O[C@H]1C)C[C@H](O)[C@H]2C(=O)O", "Fulfilled"),
    ("O=C(O)[C@H]1OC(O)[C@H](O)[C@@H](O)[C@@H]1O (some centres not stated)", "Not fulfilled"),
    ("CCCCCCCCCO[C@@H]1O[C@H](CO)[C@@H](O)[C@H](O)[C@H]1O", "Not fulfilled"),
    ("COC(=O)[C@H]1O[C@@H](O)[C@H](O)[C@@H](O)[C@H]1O", "Not fulfilled"),
    ("O=C1OC([C@@H](O)CO)[C@H](O)[C@@H]1O (some centres not stated)", "Not fulfilled"),
    ("CCCCCCCCO[C@@H]1O[C@H](CO)[C@@H](O)[C@H](O)[C@H]1O", "Not fulfilled"),
    ("CN1CCN(C2=Nc3cc(Cl)ccc3Nc3ccccc32)CC1", "Not fulfilled"),
    ("CC(=O)OC[C@H]1OC[C@H](OC(C)=O)[C@@H](OC(C)=O)[C@@H]1OC(C)=O", "Not fulfilled"),
    ("COc1cc2c(c(OC)c1OC)-c1ccc(OC)c(=O)cc1[C@@H](NC(C)=O)CC2", "Fulfilled"),
    ("CC(=O)OC[C@H]1OC[C@H](OC(C)=O)[C@@H](OC(C)=O)[C@H]1OC(C)=O", "Not fulfilled"),
    ("O=C1Cc2cc(CCN3CCN(c4nsc5ccccc45)CC3)c(Cl)cc2N1", "Not fulfilled"),
]

* * *

system: BK polyomavirus; assay: Antiviral activity against BKV Gardner ATCC VR837 infected in human WI38 cells assessed as reduction in viral DNA level preincubated for 2 hrs before viral infection measured after 7 days by real time PCR assay; type: functional, organism-based, Betapolyomavirus hominis, WI-38; conditions: wi-38
pEC50: −log10 of the molar value.

# ITEM_SEQUENCE, pEC50
rows = [
    ("NYSTATIN", 5.01),
]
